Data provenance: ChEMBL document CHEMBL1148934

- Test system: KB
- assay: Cytotoxicity against human KB cells by SRB assay
- Format: functional, cell-based
Kindly state pIC50 for each of the entries shown.
The quantity pIC50 is defined as the negative base-10 logarithm of the molar concentration.

(Q) Provide only the value of recorded pIC50 for `CC(=O)O[C@@H]1C[C@@H]2[C@@]3(C)CCCC(C)(C)[C@@H]3CC[C@@]2(C)[C@@H]2CC=C3C(=O)OC[C@@H]3[C@@]12C`
(A) 5.52

(Q) Give reported pIC50 value for `CC1(C)CCC[C@]2(C)[C@H]3C[C@@H](O)[C@]4(C)[C@H]5COC(=O)C5=CC[C@H]4[C@]3(C)CC[C@@H]12`
(A) 6.12

(Q) Give pIC50 for the following molecule: `CC(=O)O[C@@H]1OC=C2[C@@H](OC(C)=O)C[C@H]3[C@]4(C)CC[C@H]5C(C)(C)CCC[C@]5(C)[C@H]4C[C@@H](O)[C@]3(C)[C@H]21`
(A) 6.43

(Q) Please give measured pIC50 of the following entry: `CC(=O)O[C@@H]1OC(=O)C=C1[C@H]1CC=C(CC/C=C(\C)CCC2=C(C)CCCC2(C)C)[C@H](O)O1`
(A) 6.20
